- Tgt: UniProt:Q194T2
- Sequence (Q194T2 whole entry): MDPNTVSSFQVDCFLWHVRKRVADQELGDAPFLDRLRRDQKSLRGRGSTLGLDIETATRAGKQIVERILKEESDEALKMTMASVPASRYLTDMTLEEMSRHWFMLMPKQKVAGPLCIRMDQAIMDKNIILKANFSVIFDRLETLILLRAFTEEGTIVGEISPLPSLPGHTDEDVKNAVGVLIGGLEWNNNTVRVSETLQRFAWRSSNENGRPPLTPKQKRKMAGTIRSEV
- Format: functional, Influenza A virus (A/California/07/2009(H1N1))
Calls of active or inactive are those of the source.
Readout Label: IC50

CCN1/C(=C/c2ccc3cc(C)cc(C)c3[n+]2CC)Sc2cc(C)ccc21 : 17.6 µM (active)
CC1=NN(Cc2ccccc2)C(=O)/C1=C/c1ccc(N(C)C)cc1 : 50.9 µM (active)
Nn1c(SC/C=C/c2ccccc2)nnc1-c1ccccn1 : 24 µM (active)
Cc1ccc(S(=O)(=O)N2CCN(C(=O)c3ccc(N4CCCC4)c([N+](=O)[O-])c3)CC2)cc1 : > 100 µM (active)
Cc1cc(O)nc(NN/C=C2/C(=O)N(c3ccccc3)C(=O)c3ccccc32)n1 : 12 µM (active)
COc1ccc(Nc2ccccc2N)cc1 : 42.8 µM (active)
